- assayed_target: T1, human Nectin-4 extracellular antigen hNectin-4-His (human, UniProt Q96NY8 32-349)
- T1 construct: C-terminal 8xHis tag included
- T1 sequence: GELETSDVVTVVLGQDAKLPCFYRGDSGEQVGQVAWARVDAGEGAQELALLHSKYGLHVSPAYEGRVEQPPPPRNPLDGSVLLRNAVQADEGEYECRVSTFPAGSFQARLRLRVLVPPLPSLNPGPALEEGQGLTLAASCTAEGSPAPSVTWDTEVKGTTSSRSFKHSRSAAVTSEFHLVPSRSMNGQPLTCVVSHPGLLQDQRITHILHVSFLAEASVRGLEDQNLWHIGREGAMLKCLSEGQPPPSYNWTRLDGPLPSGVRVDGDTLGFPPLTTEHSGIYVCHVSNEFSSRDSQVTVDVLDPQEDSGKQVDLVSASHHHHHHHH
- test_method_notes: SPR, antibody on Protein A chip, 1:1 fit
pKd: −log10 of the molar value.
pKd: recorded values

binder	pKd
antibody 1F3-1G7 (antibody, human IgG1, kappa, V domains shown) VH: EVQLVESGGGLVQPGGSLRLSCAASGDIFSNYSMSWVRQAPGKGLEWVSGIYPSGDSRRYADSVKGRFTISRDNSKNTLYLQMNSLRAEDTAVYYCARAELLAFDVYTASDYWGQGTLVTVSS VL: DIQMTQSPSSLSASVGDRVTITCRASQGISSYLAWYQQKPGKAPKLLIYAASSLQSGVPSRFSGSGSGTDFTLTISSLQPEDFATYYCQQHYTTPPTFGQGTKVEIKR	9.13
antibody 10F4-1 (antibody, human IgG1, kappa, V domains shown) VH: EVQLVESGGGLVQPGGSLRLSCAASGDSFTNYWMSWVRQAPGKGLEWVSGISQGGSYAYYADSVKGRFTISRDNSKNTLYLQMNSLRAEDTAVYYCAREYSDVVDYVSVRTPLDYWGQGTLVTVSS VL: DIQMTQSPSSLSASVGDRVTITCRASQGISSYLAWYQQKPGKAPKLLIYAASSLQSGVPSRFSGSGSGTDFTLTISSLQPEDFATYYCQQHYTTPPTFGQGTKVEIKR	9.26
antibody 1F3-2B9 (antibody, human IgG1, kappa, V domains shown) VH: EVQLVESGGGLVQPGGSLRLSCAASGFNFDSYAMSWVRQAPGKGLEWVSGIKPHTDDIYYADSVKGRFTISRDNSKNTLYLQMNSLRAEDTAVYYCARAELLAFDVYTASDYWGQGTLVTVSS VL: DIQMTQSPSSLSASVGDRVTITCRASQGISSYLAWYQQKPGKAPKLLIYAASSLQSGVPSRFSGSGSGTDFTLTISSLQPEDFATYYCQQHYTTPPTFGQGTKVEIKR	9.26
